experimentalSystem: T1, human TL1A extracellular domain with N-terminal HIS and FLAG tag (human, UniProt O95150 72-251)
T1 construct: the whole entry is named
T1 sequence: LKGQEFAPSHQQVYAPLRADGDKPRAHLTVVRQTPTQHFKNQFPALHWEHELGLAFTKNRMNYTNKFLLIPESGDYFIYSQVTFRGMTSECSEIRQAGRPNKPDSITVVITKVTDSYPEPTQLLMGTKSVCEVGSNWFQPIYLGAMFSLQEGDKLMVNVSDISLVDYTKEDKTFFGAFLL
assayProtocol: SPR Run 5, Ab from supernatant captured on Protein A, TL1A 5 ug/mL, timepoint 44
Catalogue of TL1A Binding Level (Early) readings, one per entry.
Supply the numeric figure in RU, leaving out any unit text.

binder	TL1A Binding Level (Early), RU
320-377 (antibody, human IgG1, name in Kabat numbering, V domains shown, human IgG1, lambda) VH: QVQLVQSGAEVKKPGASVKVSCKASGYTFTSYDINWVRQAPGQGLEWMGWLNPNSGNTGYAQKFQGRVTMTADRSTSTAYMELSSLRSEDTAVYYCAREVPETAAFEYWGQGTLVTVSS VL: QSVLTQPPSVSGAPGQRVTISCTSSSSDIGAGLGVHWYQQLPGTAPKLLIEGYYNRPSGVPDRFSGSKSGTSASLTITGLLPEDEGDYYCQSYDGTLSLLFGGGTKLTVLG	-1
320-410 (antibody, human IgG1, name in Kabat numbering, V domains shown, human IgG1, lambda) VH: QVQLVQSGAEVKKPGASVKVSCKASGYLFTSYDINWVRQAPGQGLEWMGWLNPNSGNTGYAQKFQGRVTMTADRSTSTAYMELSSLRSEDTAVYYCAREVPETAAFEYWGQGTLVTVSS VL: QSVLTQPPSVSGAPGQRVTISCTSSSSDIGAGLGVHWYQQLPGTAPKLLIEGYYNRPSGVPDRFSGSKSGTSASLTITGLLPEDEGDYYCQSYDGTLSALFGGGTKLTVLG	11
320-430 (antibody, human IgG1, name in Kabat numbering, V domains shown, human IgG1, lambda) VH: QVQLVQSGAEVKKPGASVKVSCKASGYTFYSYDINWVRQAPGQGLEWMGWLNPNSGNTGYAQKFQGRVTMTADRSTSTAYMELSSLRSEDTAVYYCAREVPETAAFEYWGQGTLVTVSS VL: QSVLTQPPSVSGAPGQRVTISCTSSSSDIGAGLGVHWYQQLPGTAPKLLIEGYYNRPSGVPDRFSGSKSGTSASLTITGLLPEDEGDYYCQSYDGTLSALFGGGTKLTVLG	6
320-422 (antibody, human IgG1, name in Kabat numbering, V domains shown, human IgG1, lambda) VH: QVQLVQSGAEVKKPGASVKVSCKASGYTFASYDINWVRQAPGQGLEWMGWLNPNSGNTGYAQKFQGRVTMTADRSTSTAYMELSSLRSEDTAVYYCAREVPETAAFEYWGQGTLVTVSS VL: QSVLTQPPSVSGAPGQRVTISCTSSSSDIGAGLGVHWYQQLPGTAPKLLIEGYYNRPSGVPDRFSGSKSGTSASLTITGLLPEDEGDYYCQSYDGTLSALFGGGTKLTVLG	10

[Q] Recall and state the measured TL1A Binding Level (Early) for 320-406 (antibody, human IgG1, name in Kabat numbering, V domains shown, human IgG1, lambda) VH: QVQLVQSGAEVKKPGASVKVSCKASGYQFTSYDINWVRQAPGQGLEWMGWLNPNSGNTGYAQKFQGRVTMTADRSTSTAYMELSSLRSEDTAVYYCAREVPETAAFEYWGQGTLVTVSS VL: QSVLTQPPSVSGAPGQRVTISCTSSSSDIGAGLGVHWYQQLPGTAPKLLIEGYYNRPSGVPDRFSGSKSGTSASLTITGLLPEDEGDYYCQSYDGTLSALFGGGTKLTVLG .
[A] 8

[Q] Recall and state the measured TL1A Binding Level (Early) for 320-404 (antibody, human IgG1, name in Kabat numbering, V domains shown, human IgG1, lambda) VH: QVQLVQSGAEVKKPGASVKVSCKASGYAFTSYDINWVRQAPGQGLEWMGWLNPNSGNTGYAQKFQGRVTMTADRSTSTAYMELSSLRSEDTAVYYCAREVPETAAFEYWGQGTLVTVSS VL: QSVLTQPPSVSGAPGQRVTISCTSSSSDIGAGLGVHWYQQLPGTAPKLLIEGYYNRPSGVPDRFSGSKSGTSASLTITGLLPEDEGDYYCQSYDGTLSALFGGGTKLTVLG .
[A] 11

[Q] Recall and state the measured TL1A Binding Level (Early) for 320-415 (antibody, human IgG1, name in Kabat numbering, V domains shown, human IgG1, lambda) VH: QVQLVQSGAEVKKPGASVKVSCKASGYTQTSYDINWVRQAPGQGLEWMGWLNPNSGNTGYAQKFQGRVTMTADRSTSTAYMELSSLRSEDTAVYYCAREVPETAAFEYWGQGTLVTVSS VL: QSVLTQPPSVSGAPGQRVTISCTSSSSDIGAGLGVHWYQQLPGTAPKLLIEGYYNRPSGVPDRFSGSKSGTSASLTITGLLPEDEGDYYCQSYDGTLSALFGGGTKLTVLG .
[A] 5

[Q] Recall and state the measured TL1A Binding Level (Early) for 320-378 (antibody, human IgG1, name in Kabat numbering, V domains shown, human IgG1, lambda) VH: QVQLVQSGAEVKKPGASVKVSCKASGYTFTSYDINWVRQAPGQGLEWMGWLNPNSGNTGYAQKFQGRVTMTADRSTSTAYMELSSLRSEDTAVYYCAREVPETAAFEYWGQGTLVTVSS VL: QSVLTQPPSVSGAPGQRVTISCTSSSSDIGAGLGVHWYQQLPGTAPKLLIEGYYNRPSGVPDRFSGSKSGTSASLTITGLLPEDEGDYYCQSYDGTLSWLFGGGTKLTVLG .
[A] -1

[Q] Recall and state the measured TL1A Binding Level (Early) for 320-400 (antibody, human IgG1, name in Kabat numbering, V domains shown, human IgG1, lambda) VH: QVQLVQSGAEVKKPGASVKVSCKASGDTFTSYDINWVRQAPGQGLEWMGWLNPNSGNTGYAQKFQGRVTMTADRSTSTAYMELSSLRSEDTAVYYCAREVPETAAFEYWGQGTLVTVSS VL: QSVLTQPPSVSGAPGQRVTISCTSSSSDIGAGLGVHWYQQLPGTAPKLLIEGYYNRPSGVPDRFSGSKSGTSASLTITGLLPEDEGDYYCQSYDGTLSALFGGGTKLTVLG .
[A] 11

[Q] Recall and state the measured TL1A Binding Level (Early) for 320-425 (antibody, human IgG1, name in Kabat numbering, V domains shown, human IgG1, lambda) VH: QVQLVQSGAEVKKPGASVKVSCKASGYTFDSYDINWVRQAPGQGLEWMGWLNPNSGNTGYAQKFQGRVTMTADRSTSTAYMELSSLRSEDTAVYYCAREVPETAAFEYWGQGTLVTVSS VL: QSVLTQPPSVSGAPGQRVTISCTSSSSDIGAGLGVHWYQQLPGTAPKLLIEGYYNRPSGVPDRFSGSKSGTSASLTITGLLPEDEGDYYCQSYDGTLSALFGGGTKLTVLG .
[A] 14
